target: UniProt P16232; experiment: 11β-HSD1 dehydrogenase assay in rat Leydig cell homogenates; format: biochemical; design: Freshly prepared rat Leydig cell homogenates were chosen since they provide a rich and reliable source of both 11β-HSD1 dehydrogenase and reductase; from tissue; host or cells: rat testicular Leydig cells, homogenate;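 also: tritiated corticosterone conversion by 11β-HSD1 dehydrogenase in Leydig homogenates with 3 mM NADP at pH 8.4, 37 °C for 10 min, products resolved by HPLC, inhibition relative to uninhibited enzyme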
Sequence (P16232 whole entry): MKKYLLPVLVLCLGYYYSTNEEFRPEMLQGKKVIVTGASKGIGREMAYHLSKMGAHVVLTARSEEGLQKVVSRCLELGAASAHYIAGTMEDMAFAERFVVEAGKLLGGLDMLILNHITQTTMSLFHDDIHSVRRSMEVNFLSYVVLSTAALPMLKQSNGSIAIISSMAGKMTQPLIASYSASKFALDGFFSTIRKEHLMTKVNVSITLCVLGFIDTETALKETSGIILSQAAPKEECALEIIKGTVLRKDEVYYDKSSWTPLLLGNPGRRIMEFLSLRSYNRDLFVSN
Field: IC50. Provide a value for each of the compounds that follow.

Would you please look over these solved cases?
CC(=O)[C@H]1CC[C@@H]2[C@@H]3CCC4=CC(=O)CC[C@]4(C)[C@@H]3C(=O)C[C@]12C (stereo in doubt) = > 100 µM
C[C@]12CCC(=O)C=C1CC[C@@H]1[C@@H]2[C@@H](O)C[C@]2(C)C(=O)CC[C@@H]12 = > 100 µM

For C[C@]12CC(=O)[C@@H]3[C@@H](CCC4=CC(=O)CC[C@@]43C)[C@H]1CC[C@@H]2O , write its IC50.
> 100 µM
